# System: human platelets
# Assay Notes: ADP-induced aggregation of human platelets (PRP, turbidimetric)
# Type: cell-based
# Stated Conditions: Homo sapiens, Platelet, column 3; read-out: IC50 of compound on ADP-induced platelet aggregation rate
Experimental Readout: pIC50
The value called pIC50 is obtained by taking minus log10 of the concentration in mol/L.

- Compound: "CCCSc1nc(N[C@@H]2C[C@H]2c2ccc(F)c(F)c2)c2nnn([C@@H]3C[C@H](OCCO)[C@@H](O)[C@H]3O)c2n1 [Ticagrelor, reference compound]"
  Target System: "human platelets"
  pIC50: 6.58

What value of pIC50 has been reported for the following compound? CC1CC(=O)NN=C1c1ccc(NC(=N)N)cc1 (centres unmarked)
6.81

Hello, the source for this data is patent US11512056B2, in case you need it.
